target: human SGLT1 (Homo sapiens, UniProt P13866); construct: expressed in transfected cells; host or cells: CHO-k1; test: Inhibition test of sodium-dependent sugar uptake in CHO-k1 cells stably expressing human SGLT1; format: cell-based; conditions: sugar uptake inhibition rate at 100 nM test compound vs control group
Sequence (P13866 whole entry): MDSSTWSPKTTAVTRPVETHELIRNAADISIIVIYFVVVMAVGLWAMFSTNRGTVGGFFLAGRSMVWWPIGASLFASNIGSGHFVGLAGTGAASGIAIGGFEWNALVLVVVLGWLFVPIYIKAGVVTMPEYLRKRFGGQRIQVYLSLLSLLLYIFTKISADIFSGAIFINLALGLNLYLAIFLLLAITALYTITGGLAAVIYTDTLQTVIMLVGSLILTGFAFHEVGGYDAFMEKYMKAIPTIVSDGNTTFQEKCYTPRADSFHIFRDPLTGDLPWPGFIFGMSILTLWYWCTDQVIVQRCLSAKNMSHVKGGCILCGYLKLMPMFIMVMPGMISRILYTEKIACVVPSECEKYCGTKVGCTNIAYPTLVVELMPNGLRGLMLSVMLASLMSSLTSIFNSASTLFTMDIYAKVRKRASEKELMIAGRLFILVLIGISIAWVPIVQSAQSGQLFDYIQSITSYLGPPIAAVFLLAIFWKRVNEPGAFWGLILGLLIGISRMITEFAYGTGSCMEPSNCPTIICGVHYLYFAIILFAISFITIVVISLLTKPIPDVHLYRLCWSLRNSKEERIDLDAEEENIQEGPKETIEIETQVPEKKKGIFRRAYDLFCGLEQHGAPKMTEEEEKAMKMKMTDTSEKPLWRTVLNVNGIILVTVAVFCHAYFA
READOUT: SGLT1 % inhibition at 100 nM (%)

[
  {
    "MOLECULE": "Cc1cc(O)c([C@@H]2O[C@H](CO)[C@@H](O)[C@H](O)[C@H]2O)cc1Cc1ccc(CCNC(=O)NC2CCCC2)cc1",
    "UNITS_SYMBOL": "%",
    "SGLT1 % inhibition at 100 nM": 68
  },
  {
    "MOLECULE": "Cc1cc(O)c(C2OC(CO)C(O)C(O)C2O)cc1Cc1ccc(CCNC(=O)N2CCC3CCCCC3C2)cc1 (mixture of isomers)",
    "UNITS_SYMBOL": "%",
    "SGLT1 % inhibition at 100 nM": 66
  },
  {
    "MOLECULE": "CCC(CO)NC(=O)NCCc1ccc(Cc2cc([C@@H]3O[C@H](CO)[C@@H](O)[C@H](O)[C@H]3O)c(O)cc2C)cc1 (stereo partly shown)",
    "UNITS_SYMBOL": "%",
    "SGLT1 % inhibition at 100 nM": 71
  },
  {
    "MOLECULE": "Cc1cc(O)c([C@@H]2O[C@H](CO)[C@@H](O)[C@H](O)[C@H]2O)cc1Cc1ccc(CCNC(=O)NCCc2ccc(F)cc2)cc1",
    "UNITS_SYMBOL": "%",
    "SGLT1 % inhibition at 100 nM": 71
  },
  {
    "MOLECULE": "Cc1cc(O)c([C@@H]2O[C@H](CO)[C@@H](O)[C@H](O)[C@H]2O)cc1Cc1ccc(CCNC(=O)NC(C)(C)C)cc1",
    "UNITS_SYMBOL": "%",
    "SGLT1 % inhibition at 100 nM": 80
  },
  {
    "MOLECULE": "COc1ccc(CCNC(=O)NCCc2ccc(Cc3cc([C@@H]4O[C@H](CO)[C@@H](O)[C@H](O)[C@H]4O)c(O)cc3C)cc2)cc1OC",
    "UNITS_SYMBOL": "%",
    "SGLT1 % inhibition at 100 nM": 69
  },
  {
    "MOLECULE": "Cc1cc(O)c([C@@H]2O[C@H](CO)[C@@H](O)[C@H](O)[C@H]2O)cc1Cc1ccc(CCNC(=O)N[C@H](CO)Cc2ccccc2)cc1",
    "UNITS_SYMBOL": "%",
    "SGLT1 % inhibition at 100 nM": 73
  },
  {
    "MOLECULE": "Cc1cc(O)c([C@@H]2O[C@H](CO)[C@@H](O)[C@H](O)[C@H]2O)cc1Cc1ccc(CCNC(=O)NC2C3CC4CC(C3)CC2C4)cc1 (stereo partly shown)",
    "UNITS_SYMBOL": "%",
    "SGLT1 % inhibition at 100 nM": 78
  },
  {
    "MOLECULE": "CSCC[C@@H](CO)NC(=O)NCCc1ccc(Cc2cc([C@@H]3O[C@H](CO)[C@@H](O)[C@H](O)[C@H]3O)c(O)cc2C)cc1",
    "UNITS_SYMBOL": "%",
    "SGLT1 % inhibition at 100 nM": 73
  },
  {
    "MOLECULE": "CCCNC(=O)NCCc1ccc(Cc2cc([C@@H]3O[C@H](CO)[C@@H](O)[C@H](O)[C@H]3O)c(O)cc2C)cc1",
    "UNITS_SYMBOL": "%",
    "SGLT1 % inhibition at 100 nM": 68
  },
  {
    "MOLECULE": "Cc1cc(O)c([C@@H]2O[C@H](CO)[C@@H](O)[C@H](O)[C@H]2O)cc1Cc1ccc(CCNC(=O)N[C@@H](Cc2ccccc2)C(N)=O)cc1",
    "UNITS_SYMBOL": "%",
    "SGLT1 % inhibition at 100 nM": 79
  },
  {
    "MOLECULE": "Cc1cc(O)c([C@@H]2O[C@H](CO)[C@@H](O)[C@H](O)[C@H]2O)cc1Cc1ccc(CCNC(=O)NCCc2ccc(O)cc2)cc1",
    "UNITS_SYMBOL": "%",
    "SGLT1 % inhibition at 100 nM": 63
  },
  {
    "MOLECULE": "Cc1cc(O)c([C@@H]2O[C@H](CO)[C@@H](O)[C@H](O)[C@H]2O)cc1Cc1ccc(CCNC(=O)NCC2CCCO2)cc1 (stereo partly shown)",
    "UNITS_SYMBOL": "%",
    "SGLT1 % inhibition at 100 nM": 62
  },
  {
    "MOLECULE": "Cc1cc(O)c([C@@H]2O[C@H](CO)[C@@H](O)[C@H](O)[C@H]2O)cc1Cc1ccc(CCNC(=O)NCCCCc2ccccc2)cc1",
    "UNITS_SYMBOL": "%",
    "SGLT1 % inhibition at 100 nM": 65
  },
  {
    "MOLECULE": "COc1cccc(CCNC(=O)NCCc2ccc(Cc3cc([C@@H]4O[C@H](CO)[C@@H](O)[C@H](O)[C@H]4O)c(O)cc3C)cc2)c1",
    "UNITS_SYMBOL": "%",
    "SGLT1 % inhibition at 100 nM": 71
  },
  {
    "MOLECULE": "Cc1cc(O)c(C2OC(CO)C(O)C(O)C2O)cc1Cc1ccc(CCNC(=O)NC2CC3CCC2C3)cc1 (mixture of isomers)",
    "UNITS_SYMBOL": "%",
    "SGLT1 % inhibition at 100 nM": 71
  },
  {
    "MOLECULE": "Cc1cc(O)c([C@@H]2O[C@H](CO)[C@@H](O)[C@H](O)[C@H]2O)cc1Cc1ccc(CCNC(=O)NCC(c2ccccc2)c2ccccc2)cc1",
    "UNITS_SYMBOL": "%",
    "SGLT1 % inhibition at 100 nM": 70
  },
  {
    "MOLECULE": "Cc1cc(O)c([C@@H]2O[C@H](CO)[C@@H](O)[C@H](O)[C@H]2O)cc1Cc1ccc(CCNC(=O)NC(CO)C(C)C)cc1 (stereo partly shown)",
    "UNITS_SYMBOL": "%",
    "SGLT1 % inhibition at 100 nM": 77
  },
  {
    "MOLECULE": "Cc1cc(O)c([C@@H]2O[C@H](CO)[C@@H](O)[C@H](O)[C@H]2O)cc1Cc1ccc(CCNC(=O)NCC2OCCO2)cc1",
    "UNITS_SYMBOL": "%",
    "SGLT1 % inhibition at 100 nM": 62
  }
]
